MIC values recorded for Staphylococcus epidermidis KCTC 1917
Give a bare numeral; the unit µM is implied.

# Chem Smiles, Study Target, Unit Label, Recorded Number
rows = [
    ("CC[C@H](C)[C@H](NC(=O)[C@H](CCCN=C(N)N)NC(=O)[C@H](CCC(N)=O)NC(=O)[C@@H](NC(=O)[C@@H](NC(=O)[C@H](CCCN=C(N)N)NC(=O)[C@@H](N)CCCCN)[C@@H](C)CC)C(C)C)C(=O)N[C@@H](CCCCN)C(=O)N[C@@H](CC(=O)O)C(=O)N[C@@H](Cc1c[nH]c2ccccc12)C(=O)N[C@@H](CC(C)C)C(=O)N[C@@H](CCCN=C(N)N)C(N)=O", "Staphylococcus epidermidis KCTC 1917", "µM", 1),
    ("CC[C@H](C)[C@H](NC(=O)[C@H](C)NC(=O)[C@H](CC(C)C)NC(=O)[C@H](Cc1c[nH]c2ccccc12)NC(=O)[C@H](CC(C)C)NC(=O)[C@@H](N)CCCN=C(N)N)C(=O)NCC(=O)N[C@@H](CCCN=C(N)N)C(=O)N[C@@H](CCCN=C(N)N)C(N)=O", "Staphylococcus epidermidis KCTC 1917", "µM", 2),
]

Next item in the queue.
[in] Given the compound CC[C@H](C)[C@H](N)C(=O)N[C@@H](CC(C)C)C(=O)N[C@@H](CCCCN)C(=O)N[C@@H](Cc1c[nH]c2ccccc12)C(=O)N[C@@H](CCCCN)C(=O)N[C@@H](Cc1c[nH]c2ccccc12)C(=O)N[C@@H](CCCCN)C(=O)N[C@@H](Cc1c[nH]c2ccccc12)C(=O)N[C@@H](Cc1c[nH]c2ccccc12)C(=O)N[C@@H](CCCCN)C(=O)N[C@@H](Cc1c[nH]c2ccccc12)C(=O)N[C@@H](CCCN=C(N)N)C(=O)N[C@@H](CCCN=C(N)N)C(N)=O , what is its reported MIC?
[out] 5
